All values here come from patent US10214476B2.

# system-under-test: TREK-1 channel (Homo sapiens)
# Sequence (O95069 1-426): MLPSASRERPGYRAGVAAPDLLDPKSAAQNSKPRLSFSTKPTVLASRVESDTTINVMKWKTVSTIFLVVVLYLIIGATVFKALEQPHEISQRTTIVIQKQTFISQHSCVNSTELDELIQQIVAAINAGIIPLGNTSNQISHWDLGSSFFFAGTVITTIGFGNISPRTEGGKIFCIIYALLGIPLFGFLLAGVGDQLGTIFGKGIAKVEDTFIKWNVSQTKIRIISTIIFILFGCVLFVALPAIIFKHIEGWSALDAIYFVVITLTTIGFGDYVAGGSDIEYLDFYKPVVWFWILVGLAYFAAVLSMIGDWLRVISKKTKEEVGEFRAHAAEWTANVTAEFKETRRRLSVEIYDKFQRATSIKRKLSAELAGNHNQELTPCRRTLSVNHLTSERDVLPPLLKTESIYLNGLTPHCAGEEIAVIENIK
# procedure-details: Activation of TREK-1 channels, double electrode recording in Xenope ovocytes
# Assay type: cell-based
# Design: expressed in transfected cells; host or cells: Xenopus oocytes, defolliculated, injected with cRNA
# setup-conditions: TREK-1 currents in Xenope ovocytes injected with TREK-1 cRNA; compound solution (20 nM) perfused for 15 minutes

compound | R (in vitro)
N#C/C(=C\c1ccc(O)c(O)c1)C(=O)OCC#Cc1ccccc1 [drawing 38] | 2.2
CC(C)(C)OC(=O)/C(C#N)=C/c1ccc(O)c(O)c1 [drawing 44] | 1.20
O=C(O)/C(F)=C/c1ccccc1 [drawing 41] | 1.44
N#C/C(=C\c1ccc(O)c(O)c1)C(=O)OC1CCCCC1 [drawing 43] | 1.14
CC(C)CCOC(=O)/C(C#N)=C/c1ccc(O)c(O)c1 [drawing 45] | 1.22
N#C/C(=C\c1ccoc1)C(=O)O [drawing 39] | 1.43
CCCCCCCCCCCCOC(=O)/C(C#N)=C/c1ccc(O)c(O)c1 [drawing 42] | 1.12
N#C/C(=C\c1cc2ccccc2[nH]1)C(=O)O [drawing 40] | 2.44
O=C(O)c1cc2cc(O)c(O)cc2[nH]1 [drawing 37] | 1.31
Cl.NC/C(=C\c1ccc(O)c(O)c1)C(=O)O | 2.87

* * *

# System: mice
# procedure-details: Analgesic effect, abdominal cramps induced by acetic acid
# setup-conditions: Mus musculus, 0.25 h, compound 10 mg/kg 15 mins before acetic acid (0.6% solution, 10 mL/kg) into the peritoneal cavity, cramps counted for 15 mins, vs carrier control, read-out: Inhibition of pain in % (in vivo)
Item-by-item account of inhibition in vivo at 10 mg/kg

compound | unit-tag | inhibition in vivo at 10 mg/kg
N#C/C(=C\c1ccc(O)c(O)c1)C(=O)OC1CCCCC1 [drawing 53] | % | 55
O=C(O)c1cc2cc(O)c(O)cc2[nH]1 [drawing 47] | % | 51
N#C/C(=C\c1ccoc1)C(=O)O [drawing 49] | % | 31
CC(C)CCOC(=O)/C(C#N)=C/c1ccc(O)c(O)c1 [drawing 55] | % | 27
N#C/C(=C\c1ccc(O)c(O)c1)C(=O)OCC#Cc1ccccc1 [drawing 48] | % | 22
N#C/C(=C\c1cc2ccccc2[nH]1)C(=O)O [drawing 50] | % | 26
CCCCCCCCCCCCOC(=O)/C(C#N)=C/c1ccc(O)c(O)c1 [drawing 52] | % | 45
CC(C)(C)OC(=O)/C(C#N)=C/c1ccc(O)c(O)c1 [drawing 54] | % | 43
O=C(O)/C(F)=C/c1ccccc1 [drawing 51] | % | 34
NC/C(=C\c1ccc(O)c(O)c1)C(=O)O | % | 50
